Test: In vivo pharmacokinetic study in mice, oral ibrutinib (plasma, LC-MS/MS)
Details: female, FVB, mouse, plasma, po, 10 mg/kg, Ibrutinib Cmax, female wild-type FVB mice; ibrutinib 10 mg/kg oral; cotreatment corn oil; steady-state; mean (SE)
Description: Experiments were performed with male and female mice from inbred wild-type strains (FVB, C57BL/6, DBA) or with age- and sex-matched genetically engineered mice with a deficiency of the Cyp3a locus [(8 genes; FVB.129P2-Cyp3a13^tm1Ahs Del (5Cyp3a57-Cyp3a59)1Ahs); ref. [16]; CYP3A^−/−], a deficiency of the intestinal transporter OATP2B1 (ref. [17]; OATP2B1 ^−/−), or the hepatic transporter OATP1B2 (ref. [18]; OATP1B2 ^−/−). […] The lower limit of quantification was 5 ng/mL, using 5-μL sample volumes. […]
Measured attribute: Cmax

Molecule: C=CC(=O)N1CCC[C@@H](n2nc(-c3ccc(Oc4ccccc4)cc3)c3c(N)ncnc32)C1 [Ibrutinib]
Result: 394 ng/mL

----------
assay: In vivo pharmacokinetic study in mice, oral ibrutinib (plasma, LC-MS/MS); conditions: female, FVB, mouse, plasma, po, 10 mg/kg, Ibrutinib Cmax, female CYP3A-/- mice; ibrutinib 10 mg/kg oral; no cotreatment; mean (SE)

Molecule: C=CC(=O)N1CCC[C@@H](n2nc(-c3ccc(Oc4ccccc4)cc3)c3c(N)ncnc32)C1 [Ibrutinib]
Cmax [µg/mL]: 1.76

----------
test: In vivo pharmacokinetic study in mice, oral ibrutinib (plasma, LC-MS/MS); conditions: male, FVB, mouse, plasma, po, 10 mg/kg, Ibrutinib Cmax, male wild-type FVB mice; ibrutinib 10 mg/kg PO; co-treatment No Vehicle (cobicistat experiment); mean (SD)
Measured attribute: Cmax

Structure as smiles: C=CC(=O)N1CCC[C@@H](n2nc(-c3ccc(Oc4ccccc4)cc3)c3c(N)ncnc32)C1
Measured attribute: Cmax
Result: 360 ng/mL

----------
assay: In vivo pharmacokinetic study in mice, oral ibrutinib (plasma, LC-MS/MS); settings: female, FVB, mouse, plasma, po, 4 mg/kg, female wild-type FVB mice; ibrutinib 4 mg/kg oral; cotreatment cobicistat 30 mg/kg
Measured attribute: bioavailability

Structure as smiles: C=CC(=O)N1CCC[C@@H](n2nc(-c3ccc(Oc4ccccc4)cc3)c3c(N)ncnc32)C1
Result: 58%

----------
test: In vivo pharmacokinetic study in mice, oral ibrutinib (plasma, LC-MS/MS); conditions: female, FVB, mouse, plasma, po, 10 mg/kg, female wild-type FVB mice; ibrutinib 10 mg/kg oral; cotreatment cobicistat 30 mg/kg; steady-state

Structure as smiles: C=CC(=O)N1CCC[C@@H](n2nc(-c3ccc(Oc4ccccc4)cc3)c3c(N)ncnc32)C1
Units text: %
bioavailability: 43

----------
assay: In vivo pharmacokinetic study in mice, oral ibrutinib (plasma, LC-MS/MS); details: female, FVB, mouse, plasma, po, 10 mg/kg, female wild-type FVB mice; ibrutinib 10 mg/kg oral single dose; cotreatment cobicistat 30 mg/kg

Structure as smiles: C=CC(=O)N1CCC[C@@H](n2nc(-c3ccc(Oc4ccccc4)cc3)c3c(N)ncnc32)C1
bioavailability: 50%

----------
experiment: In vivo pharmacokinetic study in mice, oral ibrutinib (plasma, LC-MS/MS); details: female, FVB, mouse, plasma, po, 10 mg/kg, Ibrutinib Cmax, female wild-type FVB mice; ibrutinib 10 mg/kg oral; cotreatment cobicistat 30 mg/kg; steady-state; mean (SE)

Molecule: C=CC(=O)N1CCC[C@@H](n2nc(-c3ccc(Oc4ccccc4)cc3)c3c(N)ncnc32)C1 [Ibrutinib]
Cmax: 0.925 µg/mL
